Parameter: ED50. Scope: all listed entries.
- experimentalTarget: Serotonin (5-HT) receptor (Rattus norvegicus) (UniProt P35563+P35365+P32305+P31388+Q9JJ16+P28564+P30994+Q62758+P08909+P14842+P30940+P35364+P19327+P28565)
- procedureText: Evaluated for receptor mediated feedback inhibition of 5-HTP formation in striatum tissue of rat brain when administered subcutaneously
- Type: functional, tissue-based
Give the quantity in µmol/kg, number only.

CCCN(CCC)C1CC1c1ccccc1O (single isomer, unassigned; (-))    0.26
CCCN(CCC)C1CC1c1cccc(O)c1 (stereo in doubt; 18)    0.47

The reported value for CCN(CC)C1CC1c1cccc(O)c1 (centres undefined) in terms of ED50 is 0.32
